# Assayed target: T1, human ANGPTL3/8 complex (human, UniProt Q9Y5C1 17-460; Q6UXH0 22-198, limits assumed)
# T1 construct: also called hANGPTL3/8 complex; ANGTPL3/8 complex
# T1 sequence 1: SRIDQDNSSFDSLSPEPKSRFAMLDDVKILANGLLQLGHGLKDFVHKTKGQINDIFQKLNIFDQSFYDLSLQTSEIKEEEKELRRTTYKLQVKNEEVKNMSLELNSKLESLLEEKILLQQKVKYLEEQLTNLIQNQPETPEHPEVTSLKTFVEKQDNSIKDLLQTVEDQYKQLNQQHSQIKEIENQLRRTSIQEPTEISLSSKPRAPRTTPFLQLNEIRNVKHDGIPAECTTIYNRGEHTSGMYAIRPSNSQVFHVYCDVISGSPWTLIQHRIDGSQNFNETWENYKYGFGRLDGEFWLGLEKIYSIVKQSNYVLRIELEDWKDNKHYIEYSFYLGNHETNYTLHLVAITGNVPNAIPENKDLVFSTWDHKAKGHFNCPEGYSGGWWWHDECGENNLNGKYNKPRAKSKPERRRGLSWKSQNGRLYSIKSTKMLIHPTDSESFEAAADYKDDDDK
# T1 sequence 2: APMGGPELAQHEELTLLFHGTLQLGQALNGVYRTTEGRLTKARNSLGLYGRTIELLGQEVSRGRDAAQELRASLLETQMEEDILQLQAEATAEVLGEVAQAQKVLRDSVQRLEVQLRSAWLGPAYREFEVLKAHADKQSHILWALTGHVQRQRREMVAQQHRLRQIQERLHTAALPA
# Test name: ELISA; Ab captured by anti-human Fc; biotinylated antigen at 33.3 nM
Entries annotated with measured OD at 560 nm
Supply the numeric figure in OD 560 nm, leaving out any unit text.

The examples below pair each entry with its known result.
[
  {
    "Binder": "anti-ANGPTL3/8 complex Ab having a LC of SEQ ID NO:5 and a HC of SEQ ID NO:6 (antibody, human IgG4 S228P, kappa, F234A L235A, V domains shown, In the ELISA assays tested as IgG from CHO supernatants; also called the Ab) VH: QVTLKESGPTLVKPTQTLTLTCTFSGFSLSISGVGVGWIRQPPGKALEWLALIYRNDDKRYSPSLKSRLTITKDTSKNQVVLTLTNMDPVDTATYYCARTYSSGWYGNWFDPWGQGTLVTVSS VL: DIVMTQTPLSLPVTPGEPASISCRSSQSLLDSDDGNTYLDWYLQKPGQSPQLLIYMLSYRASGVPDRFSGSGSGTDFTLKISRVEAEDVGIYYCMQRIEFPLTFGGGTKVEIKR",
    "OD at 560 nm, OD 560 nm": 2.41
  },
  {
    "Binder": "Ab with LC variant having a D31S mutation (SEQ ID NO:21) and a HC of SEQ ID NO:6 (antibody, human IgG4 S228P, kappa, F234A L235A, V domains shown, also called D31S Variant Ab; D31S Ab) VH: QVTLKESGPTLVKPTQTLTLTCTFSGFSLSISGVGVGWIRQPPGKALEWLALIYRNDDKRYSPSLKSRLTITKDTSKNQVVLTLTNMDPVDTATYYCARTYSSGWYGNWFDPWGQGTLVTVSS VL: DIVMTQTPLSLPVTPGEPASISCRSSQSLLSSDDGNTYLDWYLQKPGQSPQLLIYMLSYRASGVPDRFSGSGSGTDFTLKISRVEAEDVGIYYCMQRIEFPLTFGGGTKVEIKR",
    "OD at 560 nm, OD 560 nm": 2.23
  },
  {
    "Binder": "Ab with LC variant having a E99Q mutation (SEQ ID NO:25) and a HC of SEQ ID NO:6 (antibody, human IgG4 S228P, kappa, F234A L235A, V domains shown, also called E99Q Variant Ab; E99Q Ab) VH: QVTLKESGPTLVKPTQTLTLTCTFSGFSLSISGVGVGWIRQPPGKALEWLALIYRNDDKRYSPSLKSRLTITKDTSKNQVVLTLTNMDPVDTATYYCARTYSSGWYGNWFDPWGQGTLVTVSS VL: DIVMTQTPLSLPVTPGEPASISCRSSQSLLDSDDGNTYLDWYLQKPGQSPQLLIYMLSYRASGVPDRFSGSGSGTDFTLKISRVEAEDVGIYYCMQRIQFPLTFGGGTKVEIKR",
    "OD at 560 nm, OD 560 nm": 2.23
  }
]

Input: Dear colleague, I am looking for the recorded OD at 560 nm of the following binder: Ab with LC variant having a D33A mutation (SEQ ID NO:22) and a HC of SEQ ID NO:6 (antibody, human IgG4 S228P, kappa, F234A L235A, V domains shown, also called D33A Variant Ab; D33A Ab) VH: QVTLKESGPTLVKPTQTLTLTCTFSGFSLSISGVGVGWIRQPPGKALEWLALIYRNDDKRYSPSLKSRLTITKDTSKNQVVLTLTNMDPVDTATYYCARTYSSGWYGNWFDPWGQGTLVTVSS VL: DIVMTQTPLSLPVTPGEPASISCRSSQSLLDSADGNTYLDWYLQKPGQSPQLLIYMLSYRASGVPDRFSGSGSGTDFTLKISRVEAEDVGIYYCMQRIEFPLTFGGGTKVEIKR
Output: 2.18
